Would you mind telling me the reported Octet signal of each entry?
- system_under_test: Biotinylated CD33 protein (UniProt P20138)
- Sequence (P20138 18-259 limits assumed): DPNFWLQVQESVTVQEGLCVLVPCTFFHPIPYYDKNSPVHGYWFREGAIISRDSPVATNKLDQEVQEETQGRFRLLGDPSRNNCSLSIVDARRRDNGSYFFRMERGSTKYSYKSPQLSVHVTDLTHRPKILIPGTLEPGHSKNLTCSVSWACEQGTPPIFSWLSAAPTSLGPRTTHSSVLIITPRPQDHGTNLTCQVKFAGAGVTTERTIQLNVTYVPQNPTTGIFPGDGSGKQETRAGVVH
- experimental_details: Octet competition on biotinylated CD33; competitor 353
Give the figure only, with no unit attached.

Endpoint output: Octet signal of sdCD33_11 (VHH, sdAb from a naive llama phage library; also called 430; sdAb430) VHH: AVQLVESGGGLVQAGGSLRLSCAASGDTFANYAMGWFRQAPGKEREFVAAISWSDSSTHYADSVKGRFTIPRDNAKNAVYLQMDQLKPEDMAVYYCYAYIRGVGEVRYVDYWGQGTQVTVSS . Value?
-0.112

Please look up its Octet signal: sdCD33_4 (VHH) VHH: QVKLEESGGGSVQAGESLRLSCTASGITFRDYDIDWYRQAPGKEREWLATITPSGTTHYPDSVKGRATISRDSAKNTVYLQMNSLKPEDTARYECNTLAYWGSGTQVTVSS
-0.101

Any idea what its Octet signal is? The binder is sdCD33_6 (VHH, sdAb from a naive llama phage library; also called 416; sdAb416) VHH: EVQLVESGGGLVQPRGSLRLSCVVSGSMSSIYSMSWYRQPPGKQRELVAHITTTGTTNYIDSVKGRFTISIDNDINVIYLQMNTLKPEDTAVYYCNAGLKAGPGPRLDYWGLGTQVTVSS
0.438

Where do these numbers come from? They come from patent US20230365675A1.
